Form field: EC50, IFNγ stimulation, NK92 cells (one value per entry).
# TESTED TARGET: T1, IL-18 receptor (IL-18Rα/IL-18Rβ) on cells (HEK-Blue IL18R reporter cells, NK-92, KG-1) (human, UniProt Q13478 19-541; O95256 20-599)
# T1 sequence (looked up) 1: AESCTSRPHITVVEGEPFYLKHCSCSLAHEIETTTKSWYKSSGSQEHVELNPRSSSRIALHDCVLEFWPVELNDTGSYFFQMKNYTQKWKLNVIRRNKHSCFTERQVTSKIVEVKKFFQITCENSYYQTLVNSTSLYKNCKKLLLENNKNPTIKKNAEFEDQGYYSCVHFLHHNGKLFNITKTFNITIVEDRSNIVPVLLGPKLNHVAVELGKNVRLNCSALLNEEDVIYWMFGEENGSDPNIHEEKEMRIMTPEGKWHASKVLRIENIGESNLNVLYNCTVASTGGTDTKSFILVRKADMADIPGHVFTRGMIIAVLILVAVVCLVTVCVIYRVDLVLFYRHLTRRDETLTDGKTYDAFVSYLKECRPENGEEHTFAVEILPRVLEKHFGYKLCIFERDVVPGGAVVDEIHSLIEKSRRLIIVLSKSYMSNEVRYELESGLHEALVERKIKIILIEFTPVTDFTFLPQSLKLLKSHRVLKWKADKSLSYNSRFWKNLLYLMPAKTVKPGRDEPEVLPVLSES
# T1 sequence (looked up) 2: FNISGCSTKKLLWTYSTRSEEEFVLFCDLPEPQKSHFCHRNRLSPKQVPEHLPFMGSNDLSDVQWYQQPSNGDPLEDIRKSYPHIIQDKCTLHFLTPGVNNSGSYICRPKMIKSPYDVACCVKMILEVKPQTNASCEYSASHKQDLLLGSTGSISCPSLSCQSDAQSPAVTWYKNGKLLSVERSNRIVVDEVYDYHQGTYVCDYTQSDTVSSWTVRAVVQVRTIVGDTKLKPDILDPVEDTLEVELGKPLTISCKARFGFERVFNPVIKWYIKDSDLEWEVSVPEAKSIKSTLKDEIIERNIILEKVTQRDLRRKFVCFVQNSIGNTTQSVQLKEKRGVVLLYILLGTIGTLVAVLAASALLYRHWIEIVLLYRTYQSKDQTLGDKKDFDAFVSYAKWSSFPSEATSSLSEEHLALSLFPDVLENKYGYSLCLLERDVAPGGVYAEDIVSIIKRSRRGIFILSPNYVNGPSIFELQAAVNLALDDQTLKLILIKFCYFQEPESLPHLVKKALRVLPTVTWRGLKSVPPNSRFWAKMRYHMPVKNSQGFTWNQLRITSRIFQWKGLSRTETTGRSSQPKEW
# TEST METHOD NOTES: cell-based or functional assay
Just the number in nM, nothing appended.

Below are worked cases with known answers.
| BINDER | EC50, IFNγ stimulation, NK92 cells [nM] |
| --- | --- |
| IL-18 polypeptide C168 (ligand, also called V11I, C38A, C76A, S105K, C127A) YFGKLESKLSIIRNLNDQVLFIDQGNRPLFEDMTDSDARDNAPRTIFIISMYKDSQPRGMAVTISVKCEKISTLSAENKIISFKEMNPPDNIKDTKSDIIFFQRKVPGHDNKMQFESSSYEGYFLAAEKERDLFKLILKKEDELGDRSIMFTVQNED | 0.098 |
| IL-18 polypeptide C147 (ligand, also called V11I, C38A, K53A, D54A, C76A, C127A) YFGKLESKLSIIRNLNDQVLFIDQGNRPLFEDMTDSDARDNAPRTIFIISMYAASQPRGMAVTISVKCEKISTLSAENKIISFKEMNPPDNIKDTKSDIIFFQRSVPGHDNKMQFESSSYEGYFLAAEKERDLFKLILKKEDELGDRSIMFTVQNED | 0.079 |

**Q:** Fill in: EC50, IFNγ stimulation, NK92 cells of IL-18 polypeptide C166 (ligand, also called V11I, C38A, S55T, C76A, C127A) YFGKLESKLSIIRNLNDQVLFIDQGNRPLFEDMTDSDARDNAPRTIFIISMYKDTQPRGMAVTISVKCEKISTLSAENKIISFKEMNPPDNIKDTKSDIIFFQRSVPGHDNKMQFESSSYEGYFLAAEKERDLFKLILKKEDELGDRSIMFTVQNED is ___
**A:** 0.098
